Molecular target: HLA-B*07:02;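 note: lysates heated 10 min at 37–73 °C, complexes pulled down with pan-HLA I antibody, peptide signal by DIA-MS relative to 37 °C, Tm where half the complex is unfolded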
Test: thermal melting temperature (Tm) of peptide-HLA complex; higher = more thermostable pHLA complex
Conditions: C1R-B*07:02
The full ranking holds about 1,400 sequences; the median of “thermal melting temperature (Tm) of peptide-HLA complex” is about 60, and the lowest 2% start at about 45. The entries come from a sample that favours the lowest values as a whole.
Label True when thermal melting temperature is at or above 60 °C; anything below gets False.

INSERT INTO results (sequence_content, label) VALUES
  ('QPASFAVSL', 'True'),
  ('HPAAFPLPV', 'False');

Challenge: Does the sequence `SPASFLRSL` have recorded thermal melting temperature that is 60 °C or more?
Response given: False
